Experiment: solvent given as SMILES
Conditions: in CN(C)C=O

compound	units.symbol	absorption maximum
CCCCCCOc1ccc(C#Cc2ccc(C#CC#Cc3ccc(C#Cc4ccc(OCCCCCC)c(OCCCCCC)c4)c4nsnc34)c3nsnc23)cc1OCCCCCC	nm	468
CCC1=C(C)C2=C(c3ccc(-c4c5ccccc5c(-c5ccccc5)c5ccccc45)cc3)c3c(C)c(CC)c(C)n3[B-](F)(F)[N+]2=C1C	nm	526
CSc1sc(C(C)=O)c2nn[nH]c(=O)c12	nm	404
CCn1c2ccccc2c2cc(/C=C/c3cc(/C=C/c4ccc5c(c4)c4ccccc4n5CC)ncn3)ccc21	nm	405
CCCCC(CC)Cn1c2ccc(C(=C(C#N)C#N)c3ccccc3)cc2c2c(-c3ccc(Br)cc3)c3c(c(-c4ccc(Br)cc4)c21)c1cc(C(=C(C#N)C#N)c2ccccc2)ccc1n3CC(CC)CCCC (stereo unspecified)	nm	467
CCN(CC)c1ccc(-c2nc(Oc3ccc(-c4nc5ccccc5s4)cc3)nc(Oc3ccc(-c4nc5ccccc5s4)cc3)n2)cc1	nm	374
CCCCCN(c1ccccc1)c1ccc2c(c1)C(CC)(CC)c1cc(/C=C/c3ccc(/C=C(\C#N)C(=O)O)s3)ccc1-2	nm	418
O=C1c2ccc3c4ccc5c6c(ccc(c7ccc(c2c37)C(=O)N1c1ccncc1)c64)C(=O)N(c1ccncc1)C5=O	nm	524
CCCCCCCCC1(CCCCCCCC)c2cc(C#Cc3ccc(N(c4ccccc4)c4ccccc4)cc3)ccc2-c2ccc(C=O)cc21	nm	380
CCOC(=O)CN(CC(=O)OCC)c1ccc(-c2cc(-c3ccncc3)nc(-c3ccncc3)c2)cc1	nm	342
CC1=[N+]2C(=C(c3c4ccccc4c(C)c4ccccc34)c3ccc(C)n3[B-]2(F)F)C=C1	nm	517
N#C/C(=C\c1ccncc1)c1nc(-c2ccccc2)cs1	nm	368
COc1ccc(C(=O)/C=C2\C(=O)Nc3ccccc32)cc1	nm	344
CCN1\C(=C/C=C/C=C/C2=[N+](CC)c3ccc4cc(Br)ccc4c3C2(C)C)C(C)(C)c2c1ccc1cc(Br)ccc21	nm	686
O=P1(c2ccccc2)C(c2ccc(N(c3ccccc3)c3ccccc3)cc2)=Cc2ccccc21 (stereo unspecified)	nm	410
CC1=C(C(C)(C)C)C(C)=[N+]2C1=C(C)c1c(C)c(C(C)(C)C)c(C)n1[B-]2(F)F	nm	524

====

Test: solvent given as SMILES
Conditions: in C1CCOC1
Overview of reported absorption maximum across a group of compounds:

compound	units.symbol	absorption maximum
c1ccc(-n2c3c(c4c2-c2ccccc2C42c4ccccc4-c4ccccc42)C2(c4ccccc4-c4ccccc42)c2ccccc2-3)cc1	nm	375
COc1ccc2c3cccc4c(OC)ccc(c5cccc1c52)c43	nm	458
COc1ccc(-c2cc3ccccc3p2-c2ccccc2)cc1 (stereo unspecified)	nm	340
CCCCCCCCOc1ccc(C#Cc2ccc(C#Cc3ccc(OCCCCCCCC)c(OCCCCCCCC)c3)c3nc4c5ccccc5c5ccccc5c4nc23)cc1OCCCCCCCC	nm	461
c1ccc(-c2ccc(-c3ccccc3)s2)cc1	nm	341
c1ccc(-c2ccc(-c3ccc(-c4ccccc4)cc3)cc2)cc1	nm	299
CCn1c2ccccc2c2cc(-c3cc(-c4ccc5c(c4)c4ccccc4n5CC)nc(S(C)(=O)=O)n3)ccc21	nm	381
C(=C\c1c2ccccc2cc2ccccc12)/c1c2ccccc2cc2ccccc12	nm	400
CN(C)c1ccc(/C=C2\CC/C(=C\c3ccc(C#N)cc3)C2=O)cc1	nm	458
CC(C)(C)c1ccc(-c2nc3c4ccc(-c5ccccc5)cc4c4cc(-c5ccccc5)ccc4c3n2-c2ccc(C(C)(C)C)cc2)cc1	nm	331
CC(C)(C)/C=C1\C=C(c2ccccc2)C=C1c1ccccc1	nm	400
CC(=O)c1ccc(-c2ccc3c(c2)C(=O)c2cc(-c4ccc(C(C)=O)cc4)ccc2-3)cc1	nm	343
FC(F)(F)c1ccc(C2=CC3=c4cc(-c5ccc(C(F)(F)F)cc5)c5nc(C(F)(F)C(F)(F)C(F)(F)F)nc6c(-c7ccc(C(F)(F)F)cc7)cc(c4c65)C4=CC(c5ccc(C(F)(F)F)cc5)=C5N=C(C(F)(F)C(F)(F)C(F)(F)F)N=C2C5C43)cc1 (stereo unspecified)	nm	489
CC(=O)Nc1ccc(O)cc1	nm	293
CCc1c(C)[nH]c(C2=[N+]3C(=Cc4c(C)c(CC)c(/C=C/c5ccc(N(C)C)cc5)n4[B-]3(F)F)c3ccccc32)c1C	nm	720
CCn1c2ccccc2c2cc(-c3cc(-c4ccc5c(c4)c4ccccc4n5CC)nc(N4CCCCC4)n3)ccc21	nm	367
N#Cc1c(N2CCCCC2)cc(-c2ccc(-c3ccccc3)cc2)c2c1CCc1ccccc1-2	nm	332
c1ccc(-c2cc3ccccc3p2-c2ccccc2)cc1 (stereo unspecified)	nm	321
N#Cc1ccc(C#Cc2ccc(C#Cc3ccc(C#Cc4ccccc4C#N)cc3C#N)cc2C#N)cc1	nm	356
COc1cccc(C2=CC3=C(c4c(C)cc(C)cc4C)c4cc(-c5cccc(OC)c5)c(-c5cccc(OC)c5)n4[B-](F)(F)[N+]3=C2c2cccc(OC)c2)c1	nm	592
FC(F)(F)C(F)(F)C(F)(F)C1=NC2=C(c3ccc4ccc5cccc6ccc3c4c56)C=C3c4cc(-c5ccc6ccc7cccc8ccc5c6c78)c5nc(C(F)(F)C(F)(F)C(F)(F)F)nc6c(-c7ccc8ccc9cccc%10ccc7c8c9%10)cc(c4c56)=C4C=C(c5ccc6ccc7cccc8ccc5c6c78)C(=N1)C2C34 (stereo unspecified)	nm	524
CCN(CC)c1ccc([N+]2=Cc3ccc4c5c(ccc4c3O[B-]2(c2c(F)c(F)c(F)c(F)c2F)c2c(F)c(F)c(F)c(F)c2F)C=[N+](c2ccc(N(CC)CC)cc2)[B-](c2c(F)c(F)c(F)c(F)c2F)(c2c(F)c(F)c(F)c(F)c2F)O5)cc1	nm	559
N#CC(C#N)=Cc1cn(-c2ccccc2)nc1-c1ccccc1	nm	354
CC1=C[C@]2(C)C(=C3C(=C4C(C)=C(c5ccc(-c6nc(-c7ccccc7)c(-c7ccccc7)[nH]6)cc5)S[C@]42C)C(F)(F)C(F)(F)C3(F)F)S1	nm	505
c1ccc(-n2c(-c3ccc(-c4ccc(-c5ccc(-c6nc7c8ccccc8c8ccccc8c7n6-c6ccccc6)cc5)cc4)cc3)nc3ccccc32)cc1	nm	341
CC1(C)CCc2c(c3ccccc3c3nc4c5c(c6ccccc6c4nc23)OC(C)(C)CC5)O1	nm	458.09
CC(C)(C)c1ccc2c(c1)c1cc(C(C)(C)C)ccc1n2-c1ccc2oc3nc4oc5ccc(C(F)(F)F)cc5c4cc3c2c1	nm	338
C(=C\c1nc2ccccc2s1)/c1ccc(-c2nc3c4cccnc4c4ncccc4c3[nH]2)cc1	nm	386
C(=C\c1nc2ccccc2[nH]1)/c1ccc(-c2nc3c4cccnc4c4ncccc4c3[nH]2)cc1	nm	381
CC(C)(C)c1cc2ccc3cccc4c3c2c(c1)c1nc2c3cc(C(C)(C)C)cc5ccc6cccc(c(=O)n2c41)c6c53	nm	395
CCOC(=O)/C(C#N)=C/c1cc2c3ccccc3n(C)c2cc1OC	nm	407
